Each recorded value in this set is attributed to patent US20240287046A1.

Test system: ASPC-1 tumor-bearing mice
measurementProtocol: Biodistribution of radionuclide labeled complexes in ASPC-1 tumor-bearing mice
Assay type: in vivo, BALB/c nude mice
cond: Muscle, 24 h
measuredProperty: % ID/g (24 h) Muscle (% ID/g)
Answers are plain numbers, in % ID/g.

Past entries and their recorded results:
COc1cccc(OC)c1-c1cc(C(=O)NC2(C(=O)O)C3CC4CC(C3)CC2C4)nn1-c1ccc(NCCOCCOCCNC(=O)CN2CCN(CC(=O)[O-])CCN(CC(=O)[O-])CCN(CC(=O)[O-])CC2)cc1C(C)C.[177Lu+3] (stereo not drawn) [^177Lu-I-10]: 0.01
COc1cccc(OC)c1-c1cc(C(=O)NC2(C(=O)O)C3CC4CC(C3)CC2C4)nn1-c1ccc(NCCCN(C)CCCNC(=O)CN2CCN(CC(=O)[O-])CCN(CC(=O)[O-])CCN(CC(=O)[O-])CC2)cc1C(C)C.[177Lu+3] (stereo not drawn) [^177Lu-I-2]: 0.23

Here is another compound to look at.
For the compound COc1cccc(OC)c1-c1cc(C(=O)NC2(C(=O)O)C3CC4CC(C3)CC2C4)nn1-c1ccc(C(=O)N(C)CCCN(C)CCCN(C)C(=O)CN2CCN(CC(=O)[O-])CCN(CC(=O)[O-])CCN(CC(=O)[O-])CC2)cc1C(C)C.[177Lu+3] (stereo not drawn) [^177Lu-C-2, reference compound] , give its measured % ID/g (24 h) Muscle value. 0.1
